Source listed as patent US7405231B2.

target: HER2 (Homo sapiens, UniProt P04626); construct: endogenous in cells; host or cells: Calu3 tumor cell line; assay: Inhibition of HER2 phosphorylation in Calu3 tumor cell line; assay type: cell-based; conditions: Calu-3; compound concentration 1 μM; Calu3 cells, 16 h; pY 1248 in HER2; percentage of the DMSO treated control; read-out: Percent inhibition of HER2-phosphorylation
Sequence (P04626 23-1255): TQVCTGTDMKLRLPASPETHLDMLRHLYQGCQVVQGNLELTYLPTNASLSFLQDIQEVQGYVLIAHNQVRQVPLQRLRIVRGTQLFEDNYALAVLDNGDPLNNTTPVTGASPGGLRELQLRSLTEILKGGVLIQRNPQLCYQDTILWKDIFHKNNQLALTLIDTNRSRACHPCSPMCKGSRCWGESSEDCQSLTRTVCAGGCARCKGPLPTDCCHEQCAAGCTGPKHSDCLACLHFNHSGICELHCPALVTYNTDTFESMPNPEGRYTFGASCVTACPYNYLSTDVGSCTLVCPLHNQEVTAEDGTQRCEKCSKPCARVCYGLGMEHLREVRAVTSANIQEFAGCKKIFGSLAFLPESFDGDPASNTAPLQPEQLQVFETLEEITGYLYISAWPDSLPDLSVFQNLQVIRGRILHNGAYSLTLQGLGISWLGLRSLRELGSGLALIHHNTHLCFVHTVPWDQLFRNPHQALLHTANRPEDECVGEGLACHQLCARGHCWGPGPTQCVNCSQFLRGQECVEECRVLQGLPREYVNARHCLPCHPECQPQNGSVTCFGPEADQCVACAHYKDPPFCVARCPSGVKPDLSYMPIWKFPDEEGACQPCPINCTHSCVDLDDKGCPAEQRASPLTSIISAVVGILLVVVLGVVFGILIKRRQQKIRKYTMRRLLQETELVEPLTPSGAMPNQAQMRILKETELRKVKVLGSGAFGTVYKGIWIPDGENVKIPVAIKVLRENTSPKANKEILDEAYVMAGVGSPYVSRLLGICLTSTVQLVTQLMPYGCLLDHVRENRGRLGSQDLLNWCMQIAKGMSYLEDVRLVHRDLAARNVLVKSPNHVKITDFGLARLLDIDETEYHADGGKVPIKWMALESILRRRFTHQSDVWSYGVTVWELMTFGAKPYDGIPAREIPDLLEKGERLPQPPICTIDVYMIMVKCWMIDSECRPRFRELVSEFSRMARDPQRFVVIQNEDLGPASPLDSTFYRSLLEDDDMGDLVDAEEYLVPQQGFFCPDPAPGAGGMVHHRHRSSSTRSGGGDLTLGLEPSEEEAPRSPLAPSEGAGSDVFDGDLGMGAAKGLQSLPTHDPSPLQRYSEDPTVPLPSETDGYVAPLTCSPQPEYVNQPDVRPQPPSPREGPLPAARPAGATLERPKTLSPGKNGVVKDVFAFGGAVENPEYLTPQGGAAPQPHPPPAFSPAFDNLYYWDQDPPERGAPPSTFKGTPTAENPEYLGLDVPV
Assay Metric: inhibition at 1 µM (%)

> print(dat)
                                   compound                         assay.system        assay.metric  endpoint.value
1  [O-][S+](c1ccc(/C=C/c2nc(COc3ccc(CCCCc4nn[nH]n4)cc3)co2)cc1)C(F)(F)F (stereo not shown)  HER2 (Homo sapiens, UniProt P04626)  inhibition at 1 µM            52.9
2  [O-][S+](c1ccc(/C=C/c2nc(COc3ccc(CCCCn4ccnn4)cc3)co2)cc1)C(F)(F)F (stereo not shown)  HER2 (Homo sapiens, UniProt P04626)  inhibition at 1 µM            94.4
3  [O-][S+](c1ccc(/C=C/c2nc(COc3ccc(CCCCn4ccnn4)cc3)cs2)cc1)C(F)(F)F (stereo not shown)  HER2 (Homo sapiens, UniProt P04626)  inhibition at 1 µM            73.6
4  O=S(=O)(c1ccc(/C=C/c2nc(COc3ccc(CCCCn4ccnn4)cc3)co2)cc1)C(F)(F)F  HER2 (Homo sapiens, UniProt P04626)  inhibition at 1 µM            82.9

* * *

melting point values by entry
Assay Metric: melting point

> print(dat)
                                   compound  endpoint.value
1  O=S(=O)(c1ccc(/C=C/c2nc(COc3ccc(CCCCn4ccnn4)cc3)co2)cc1)C(F)(F)F   133 to 135 °C
2  [O-][S+](c1ccc(/C=C/c2nc(COc3ccc(CCCCn4ccnn4)cc3)co2)cc1)C(F)(F)F (stereo not drawn)   122 to 123 °C
3  O=S(=O)(NCCn1ccnn1)c1ccc(OCc2coc(C=Cc3ccc([S+]([O-])C(F)(F)F)cc3)n2)cc1 (stereo not drawn)   172 to 174 °C
4  [O-][S+](c1ccc(/C=C/c2nc(COc3ccc(CNCCn4ccnn4)cc3)co2)cc1)C(F)(F)F (stereo not drawn)   111 to 113 °C
5  [O-][S+](c1ccc(/C=C/c2nc(COc3ccc(CCCCn4ccnn4)cc3)cs2)cc1)C(F)(F)F (stereo not drawn)   118 to 119 °C
6  Cc1cc(OCc2coc(C=Cc3ccc(S(=O)(=O)C(F)(F)F)cc3)n2)ccc1CCCCn1ccnn1   140 to 142 °C
